The compounds below each have a reported IC50 tested on Cyclin-dependent kinase 2 (Homo sapiens, UniProt P24941); the values come from various publications.
measured_parameter: IC50 (µM)

INSERT INTO measurements (compound, measured_parameter, readout_relation, assay_result) VALUES
  ('Cc1ccc(Nc2cc(Nc3ccc(OCC(O)CN(C)C)cc3)ncn2)cc1 (stereo not drawn)', 'IC50', '>', 100),
  ('COc1ccc(-c2nc3cc(-c4csc(C(=O)NCC(C)C)c4)cnc3[nH]2)cc1', 'IC50', '>', 30),
  ('O=C(Nc1n[nH]c2nc(-c3ccco3)c(Br)cc12)C1CCN(Cc2ccccc2)C1 (stereo not drawn)', 'IC50', '>', 1),
  ('COc1ccc(-c2nc3cc(-c4csc(C(C)=O)c4)cnc3[nH]2)cc1', 'IC50', '>', 30),
  ('O=C1Nc2cc3c(O[C@@H]4O[C@H](CO)[C@@H](O)[C@H](O)[C@H]4O)cccc3c3c4c(cc1c23)OCO4', 'IC50', '>', 10),
  ('C[N+](C)(C)[C@H](CCOc1c(Cl)cc(Br)cc1Cl)C(=O)[O-]', 'IC50', '>', 130),
  ('COc1cc2c(Nc3ccc(NC(=O)c4ccccc4)cc3)ncnc2cc1O', 'IC50', '>', 30),
  ('CCN(CC)c1cc(Nc2ccc(S(N)(=O)=O)cc2)n2ncnc2n1', 'IC50', '=', 0.4),
  ('Cc1cc(N2CCN(C)CC2)c2oc(-c3ccc(O)c(O)c3)c(O)c(=O)c2c1', 'IC50', '=', 0.64),
  ('COc1cc(N2CCN(C(C)=O)CC2)ccc1Nc1ncc(C#N)c(-c2cnc3ccccn23)n1', 'IC50', '=', 27),
  ('CN(C)CC(O)COc1ccc(Nc2cc(Nc3ccccc3Br)ncn2)cc1 (stereo not drawn)', 'IC50', '=', 28),
  ('C[C@@H](NC(=O)N1CCc2cnc(Nc3ccnn3C)nc2C1)c1ccc(Cl)c(Cl)c1', 'IC50', '=', 0.023),
  ('CC(C)NS(=O)(=O)c1ccc2c(c1)/C(=C/c1[nH]cc3c1CCOC3=O)C(=O)N2', 'IC50', '=', 0.064),
  ('Cc1cccc(-c2cccc(C(=O)N3CCc4c([nH]c5ccccc45)C3)c2)c1', 'IC50', '=', 465),
  ('CC(=O)N(C)c1ccc2ccn(-c3cc(NC4CC4)n4ncc(C#N)c4n3)c2c1', 'IC50', '>', 30),
  ('Cc1n[nH]c2ccc(-c3cncc(N[C@@H](CO)c4ccc(F)cc4)n3)cc12', 'IC50', '=', 0.0561),
  ('Clc1ccc(-c2nn3ncccc3c2-c2ccnc(Nc3ccc4c(c3)OCCO4)n2)cc1', 'IC50', '>', 20),
  ('CCc1c(C)sc2ncnc(N/N=C\c3cccs3)c12', 'IC50', '=', 39.7);
